Exercise: state measured TGI for each of the compounds provided.
system: HS 578T breast; test: NCI tumour cell line growth inhibition, 48 h

// query Can you share its TGI? I mean this compound: c1ccc(CSSSCc2ccccc2)cc1
// result > 31 µM

// query And what about the compound Cc1oc2c(c1C)S(=O)(=O)C(C#N)=CN2 ?
// result > 100 µM

// query And what about the compound COc1cc2c(cc1OCCCNC(=O)/C=C1/C[C@H]3C=Nc4cc(OCc5ccccc5)c(OC)cc4C(=O)N3C1)NC(=O)[C@@H]1CCCN1C2=O ?
// result > 100 µM

// query And what about the compound COCOc1cc(OC)ccc1C/C=N/O ?
// result > 100 µM

// query And what about the compound CCCCOC(=O)NC(c1ccccc1)C(O)C(=O)OC1C[C@@]2(O)C(OC(=O)c3ccccc3)C3[C@](C)(C(=O)[C@H](OC(C)=O)C(=C1C)C2(C)C)[C@@H](O)C[C@H]1OC[C@@]31OC(C)=O (stereo partly specified) ?
// result 0.0469 µM

// query And what about the compound [N-]=[N+]=NCCCn1c2c(c3ccccc3c1=O)C(=O)c1cc(Br)ccc1-2 ?
// result > 100 µM

// query And what about the compound CC1(C)CC(=O)c2c(nc3c(ccc4ccccc43)c2-c2ccc(NC(=O)CCCC(=O)Nc3ccc(-c4c5c(nc6c4ccc4ccccc46)CC(C)(C)CC5=O)cc3)cc2)C1 ?
// result > 100 µM

// query And what about the compound O=c1n(-c2ccccc2)c(=O)n2n1C1C=CC2CCCCCC1 ?
// result > 100 µM

// query And what about the compound CCn1cc(C(=O)N/N=C/c2ccc(Br)cc2)c(=O)c2cc(F)c(N3CCNC(C)C3)c(F)c21 (stereo unspecified) ?
// result 5.9 µM

// query And what about the compound C=C1C/C(=C/C)C(=O)O[C@@H]2CCN3CC=C(COC(=O)[C@]1(C)O)[C@H]23 ?
// result > 100 µM

// query And what about the compound CCc1nc(N)nc(N)c1-c1ccc(Cc2ccccc2)c([N+](=O)[O-])c1 ?
// result > 67.1 µM

// query And what about the compound CCC(CN(C)C)C(=O)c1ccco1 (stereo unspecified) ?
// result > 100 µM

// query And what about the compound Cc1ccc(Nc2nc(C)c(C(=O)CC(=O)C(=O)Nc3c(C)cccc3C(C)(C)C)s2)cc1 ?
// result > 100 µM

// query And what about the compound CC(=NCC(=O)O)c1ccccc1 ?
// result > 100 µM

// query And what about the compound Nc1ccc2c(c1)Cc1ccccc1-2 ?
// result > 100 µM

// query And what about the compound COC(=O)C(CCC1CC(OC)N(C(=O)OCc2ccccc2)C1)N=Cc1ccccc1 (stereo unspecified) ?
// result > 100 µM

###

test system: UACC-257 melanoma; experiment: NCI tumour cell line growth inhibition, 48 h
recorded_metric: TGI

// query // map CC(=O)NC1=C(C)C(=O)c2c(nc3n2CCC3OC(=O)c2ccccc2)C1=O (stereo not drawn) to recorded TGI (system: UACC-257 melanoma)
// result 2.93 µM

// query And what about the molecule COc1cc(OC)cc(C2C(C#N)=C(N)Oc3c2ccc2ccc(O)cc32)c1 (stereo not drawn) ?
// result 32.5 µM

// query And what about the molecule COC1=C(OC)C23CCc4ccc(OC)c(O)c4C2(CCN3)CC1=O (stereo not drawn) ?
// result > 100 µM

// query And what about the molecule COc1cc(NC(=O)c2ccc(C(F)(F)F)nc2Nc2cc(Cl)ccc2C)cc(OC)c1OC ?
// result 19.7 µM

// query And what about the molecule CC(=O)Nc1ccc2c(C3=C(c4cn(C)c5ccccc45)C(=O)NC3=O)cn(C)c2c1 ?
// result > 25 µM

// query And what about the molecule CC(C)(C)c1ccc2c(c1)C(=O)c1ccccc1C2=O ?
// result > 100 µM

// query And what about the molecule O=c1c2ccccc2n2c(=S)[nH]nc2n1-c1ccccc1 ?
// result > 100 µM

// query And what about the molecule COC(=O)C(CCC1CC(OC)N(C(=O)OCc2ccccc2)C1)N=Cc1ccccc1 (stereo not drawn) ?
// result > 100 µM
